Data provenance: the supplement of paper PMC6897291

Tested on: RIVA
protocolText: growth inhibition by drug alone (1 - RLU/untreated control) (fraction); higher = stronger inhibition
cond: 100 nM; time (day): 4; 177Lu-lilotomab satetraxetan 0 ug/ml
Where a name gives a salt, the structure may show the parent alone.
Give growth inhibition by drug alone for every item shown.
Give bare numbers.

{"columns": ["compound", "growth inhibition by drug alone"],
 "data": [
  ["CCOc1ccc(Cc2cc([C@@H]3O[C@H](CO)[C@@H](O)[C@H](O)[C@H]3O)ccc2Cl)cc1 [Dapagliflozin]", -0.0453],
  ["CNNCc1ccc(C(=O)NC(C)C)cc1 [Procarbazine hydrochloride (Matulane)]", -0.167],
  ["Cc1cc(O)c2c(c1)C(=O)c1cccc(O)c1C2=O [Chrysophanic acid (Chrysophanol)]", -0.135]
]}

Q: Dear colleague, please send me the reported growth inhibition by drug alone for `CC(C)CC(=O)Nc1n[nH]c2c1CN(C(=O)C1CCN(C)CC1)C2(C)C` when you can.
Result: 0.346
